Each record here notes measured %Inh.
Tested on: CDK7
condition.set: concentration: 1 μM, replicates: in singlicate; n = 1
Field format: number, assumed %, no unit text.

Sample answers from the record:
Nc1ncnc2c1ncn2-c1ccc(Cl)cc1 ... 0
Cc1ccc(Oc2ccc(Nc3ncnc4cc[nH]c34)cc2C)cn1 ... 40
Cc1ccccc1COc1cc(-n2cnc3cc(Cl)ccc32)sc1C(N)=O ... 0
CCC(=O)c1c(-c2ccccc2)c2cc(Cl)ccc2c(=O)n1Cc1ccc(C(=O)O)cc1 ... 0
COc1ccc(Nc2nccc(N3CCC(NS(=O)(=O)c4ccc(NC(C)=O)cc4)C3)n2)cc1 (centres unmarked) ... 0

Input line: # value lookup — system CDK7, readout %Inh, item `O=C1NC(=O)C(c2ccccc2)=C1Nc1cccc(O)c1`;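 also: KINOMEscan kinase panel screen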
Output line: 0

Input line: Further, for `Cc1c(Cn2c(C)nn3c(=O)cc(N4CCO[C@H](C)C4)nc23)cccc1C(F)(F)F` ?
Output line: 0

Input line: Further, for `CC(C)(C)c1ccc(C(=O)Nc2cn3cc(-c4ccccc4)ccc3n2)cc1` ?
Output line: 5

Input line: Further, for `COc1cc2ncn(-c3cc(OCc4ccncc4)c(C(N)=O)s3)c2cc1OC` ?
Output line: 2

Input line: Further, for `CN(C)c1cc(-c2ccc3c(N)n[nH]c3c2)nc(N)n1` ?
Output line: 0

The reported measurements were obtained from paper PMC5540273.
